test system: L1210; experiment: In vitro cytotoxicity was measured after 48 hr of exposure against L1210 murine leukemia cells; assay type: functional, cell-based; conditions: Mus musculus, L1210, 48 h
reported.metric: IC50

INSERT INTO measurements (smiles_str, reported_metric, endpoint_value) VALUES
  ('C=C(Br)C(=O)Nc1cc(C(=O)Nc2cc(C(=O)Nc3cc(C(=O)Nc4cc(C(=O)Nc5cc(C(=O)NCCC(=N)N)n(C)c5)n(C)c4)n(C)c3)n(C)c2)n(C)c1.Cl', 'IC50', '23 nM'),
  ('C=C(F)C(=O)Nc1cc(C(=O)Nc2cc(C(=O)Nc3cc(C(=O)NCCC(=N)N)n(C)c3)n(C)c2)n(C)c1', 'IC50', '> 800 nM'),
  ('C=C(Br)C(=O)Nc1cc(C(=O)Nc2cc(C(=O)NCCC(=N)N)n(C)c2)n(C)c1', 'IC50', '> 1300 nM'),
  ('C=C(F)C(=O)Nc1cc(C(=O)Nc2cc(C(=O)Nc3cc(C(=O)Nc4cc(C(=O)NCCC(=N)N)n(C)c4)n(C)c3)n(C)c2)n(C)c1', 'IC50', '> 700 nM'),
  ('C=C(Cl)C(=O)Nc1cc(C(=O)Nc2cc(C(=O)Nc3cc(C(=O)Nc4cc(C(=O)NCCC(=N)N)n(C)c4)n(C)c3)n(C)c2)n(C)c1.Cl', 'IC50', '3.8 nM'),
  ('C=C(Br)C(=O)Nc1cc(C(=O)NCCC(=N)N)n(C)c1', 'IC50', '> 13000 nM'),
  ('C=C(Br)CNc1cc(C(=O)Nc2cc(C(=O)Nc3cc(C(=O)NCCC(=N)N)n(C)c3)n(C)c2)n(C)c1', 'IC50', '> 1600 nM');
